- Tested on: HeLa
- Method notes: Primary qHTS to identify gynecologic anti-cancer compounds using libraries of approved drugs and bioactive compounds (AID 1345084); further: nearly all actives have a fitted effect of over 55% in size
- Conditions used: Gynecologic cancer cell panel viability, ATPlite luminescence, 48 h; series mostly up to 57.5 µM
Results filed as inconclusive are left out. Active and inactive are the calls of the source. The call rests on the fitted dose curve; in most records, active means well fitted cell-killing curve with a large enough effect; inconclusive means small, poorly fitted or top-dose-only effect, or effect the other way; inactive means flat fitted curve, though single readings scatter.
Just give me one of these, please: true (1) for active, false (0) for inactive

Reference set (6 entries):
| Compound | Group |
| --- | --- |
| CC12CCC(OC3OC(CO)C(O)C(OC4OC(CO)C(O)C(O)C4O)C3O)CC1=CCC1C2CCC2(C)/C(=C3/COC(=O)C3)CCC12O (stereo unspecified) | false (0) |
| CC(c1ncncc1F)C(O)(Cn1cncn1)c1ccc(F)cc1F (stereo unspecified) | false (0) |
| CCCn1c(=O)c2[nH]c(-c3ccc(OCC(=O)O)cc3)nc2n(CCC)c1=O | false (0) |
| CN(C)C/C=C/C(=O)Nc1cccc(C(=O)Nc2ccc(Nc3nccc(-c4cccnc4)n3)cc2)c1 | true (1) |
| COc1ccc(CNC(=O)c2sc3nc(C)cc(C)c3c2N)cc1 | false (0) |
| Nc1ccccc1N | true (1) |

Prompt line: Each compound tested received a call. Report the one for CC(CO)C1CCC2(C)CC3C(CO)CC(O)C3C(C)(O)C/C=C/12 (stereo unspecified) .
Response line: false (0)

###

- Test system: SKOV3
- Method notes: Primary qHTS to identify gynecologic anti-cancer compounds using libraries of approved drugs and bioactive compounds (AID 1345084); further: nearly all actives have a fitted effect of over 55% in size
- Conditions used: Gynecologic cancer cell panel viability, ATPlite luminescence, 48 h; series mostly up to 57.5 µM
Records with an inconclusive call do not appear. Activity calls are given as the source filed them. Calls follow the shape of the dose curve; as a rule, active = well fitted cell-killing curve with a large enough effect; inconclusive = small, poorly fitted or top-dose-only effect, or effect the other way; inactive = flat fitted curve, though single readings scatter.
Your response should consist of one outcome taken from yes (1) for active, no (0) for inactive

Some solved cases for reference:
| Molecule | Group |
| --- | --- |
| C=C1C(OC2OCC(O)C(O)C2O)CC2C(C)(C)C(O)CCC2(C)C1CC/C(C)=C\CO (stereo not given) | no (0) |
| CC(C)(C)c1ccc(S(=O)(=O)NCc2ccc(C(=O)Nc3cccnc3)cc2)cc1 | yes (1) |
| CC1(C)CCC[C@]2(C)[C@H]3CC(=O)O[C@]3(C)CC[C@@H]12 | no (0) |
| CCOC(=O)C(CCc1ccccc1)NC1CSC(c2cccs2)CN(CC(=O)O)C1=O (stereo not given) | no (0) |
| CCC[C@@H]1O[C@@H]2C[C@H]3[C@@H]4CCC5=CC(=O)C=C[C@]5(C)[C@H]4[C@@H](O)C[C@]3(C)[C@]2(C(=O)CO)O1 | no (0) |

Prompt line: Record request — test call for COCCOc1cnc2ccn([C@H](C)c3nnc4c(F)cc(-c5cnn(C)c5)cn34)c(=O)c2c1
Response line: no (0)

Prompt line: I'd appreciate the recorded outcome for O=C1CSc2ccccc2N1Cc1cccc(C(F)(F)F)c1 from this test.
Response line: no (0)

Prompt line: Given O=C(Nc1ccn[nH]1)c1c(F)cccc1F , state the outcome it received in this test.
Response line: no (0)

Prompt line: How was CC1(C)CC2C(C1)C(C)(O)C13CC1(COC3=O)C2O (stereo not given) classified in this test?
Response line: no (0)

Prompt line: Would you mind telling me which call this test gave CC(C)CC(=O)O[C@@H]1OC=C(CO[C@@H]2O[C@H](CO)[C@@H](O)[C@H](O)[C@H]2O)[C@H]2[C@@H]3O[C@H]3[C@@](O)(CO)[C@@H]12 ?
Response line: no (0)

###

- System: HaCat
- Method notes: Cytotoxic Profiling of Annotated Libraries Using Quantitative High-Throughput Screening (AID 1296008); further: nearly all actives have a fitted effect of over 60% in size
- Conditions used: Five cell lines viability, CellTiter-Glo ATP luminescence, 48-72 h
Results filed as inconclusive are left out. Calls of active or inactive are those of the source. Calls come from the whole dose curve; as a rule, active = well fitted inhibition curve with a large enough effect; inconclusive = small, poorly fitted or top-dose-only effect; inactive = flat fitted curve, though single readings scatter.
The reply should be one of these categories: active, inactive

Some solved cases for reference:
| Compound | Target desc | Group |
| --- | --- | --- |
| Cc1ccc(S(=O)(=O)Cc2nc(-c3ccc(C(=O)NCc4cccnc4)cc3)oc2C)cc1 | HaCat | active |
| CC(C)=CCC/C(C)=C/CO[C@@H]1O[C@H](CO)[C@@H](O)[C@H](O)[C@H]1O | HaCat | inactive |
| CCNC(=O)Nc1ncc(-c2cc(-c3c(C)cc(OC)cc3C)nc(-c3cnccn3)n2)s1 | HaCat | inactive |
| CCC1=CC2CN(C1)Cc1c([nH]c3ccccc13)[C@@](C(=O)OC)(c1cc3c(cc1OC)N(C)[C@H]1[C@@](O)(C(=O)OC)[C@H](OC(C)=O)[C@]4(CC)C=CCN5CC[C@]31[C@@H]54)C2 (some centres not stated) | HaCat | inactive |

Prompt line: What did the test return for C=CC(C)(C)c1[nH]c2cc3c(cc2c1CC1NC(=O)C2CCCN2C1=O)C=CC(C)(C)O3 (configuration not stated) ?
Response line: inactive

Prompt line: Returns: the outcome recorded for C[C@@H]1CCC2C(C)(C)[C@H](O)CC[C@]2(C)[C@@]12Cc1c(O)cc3c(c1O2)CN([C@@H](CCC(=O)O)C(=O)O)C3=O (some centres not stated) in this assay.
Response line: inactive

Prompt line: Call for entry C/C=C/c1ccc2c(c1)[C@@H](C)[C@H](c1ccc(O)cc1)O2 :
Response line: inactive

###

- Target desc: Nicotinamide N-methyltransferase (Homo sapiens) (UniProt P40261)
- Sequence (P40261 whole entry, looked up): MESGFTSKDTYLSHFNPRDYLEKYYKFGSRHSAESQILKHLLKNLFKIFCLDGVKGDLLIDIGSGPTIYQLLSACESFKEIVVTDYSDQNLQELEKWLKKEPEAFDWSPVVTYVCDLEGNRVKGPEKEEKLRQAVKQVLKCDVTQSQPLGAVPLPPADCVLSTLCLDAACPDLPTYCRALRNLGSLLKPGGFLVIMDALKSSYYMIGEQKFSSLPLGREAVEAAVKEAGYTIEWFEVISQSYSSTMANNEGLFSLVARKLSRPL
- Method notes: Confirmatory Screen for Target Class Profiling of Small Molecule Inhibitors of Methyltransferases (AID 1745852)
- Conditions used: MTase-Glo luminescence, SAH detection, recombinant enzyme; measured here: NNMT max response; stronger effect = lower value
// reported activity for each item listed
Please reply with the bare figure in % and do not write the unit itself.

Please review the entries below; each comes with its answer.
| Compound | Measurement unit | activity |
| --- | --- | --- |
| COc1ccc(C2(O)CCC(N3CC[C@@H](NC(=O)CNC(=O)c4cccc(C(F)(F)F)c4)C3)CC2)cn1 (stereo partly specified) | % | 0.219 |
| COc1cc2c(cc1O)CC[C@H]1[C@@H]2CC[C@]2(C)[C@H](O)CC[C@@H]12 | % | -2.72 |
| C=C(C(=O)O)[C@@H]1CC[C@@]2(C)CC[C@H](O)[C@@]2(C(C)=O)C1 | % | -3.52 |

Lab note: next compound to report on.
Prompt line: Write down activity measured for item COc1cccc(-c2cc(NCc3ccc4c(c3)OCO4)nc(N)n2)c1
Response line: -16.1

###

- Test system: Tov-21-G
- Method notes: Primary qHTS to identify gynecologic anti-cancer compounds using libraries of approved drugs and bioactive compounds (AID 1345084); further: nearly all actives have a fitted effect of over 55% in size; further: potency means the concentration at half of the fitted maximal effect
- Conditions used: Gynecologic cancer cell panel viability, ATPlite luminescence, 48 h; series mostly up to 57.5 µM
Inconclusive results are not listed. Activity calls are given as the source filed them. Calls follow the shape of the dose curve; as a rule, active = well fitted cell-killing curve with a large enough effect; inconclusive = small, poorly fitted or top-dose-only effect, or effect the other way; inactive = flat fitted curve, though single readings scatter.
Reported metric: Potency

Some solved cases for reference:
| Molecule | Potency |
| --- | --- |
| C[C@@H]1CC[C@]2(C(=O)O[C@@H]3O[C@H](CO)[C@@H](O)[C@H](O)[C@H]3O)CC[C@]3(C)C(=CCC4[C@@]5(C)C[C@@H](O)[C@H](O)[C@](C)(C(=O)O)C5CC[C@]43C)[C@@H]2[C@]1(C)O (stereo not given in full) | inactive |
| CC(=O)OC/C=C(\C)C(CC1C(C)=C(OC(C)=O)C(=O)C2C(C)(C)C(O)CCC12C)OC(C)=O (stereo not given) | inactive |
| CC(=O)OC[C@]12[C@H](OC(C)=O)C(=O)[C@@H]3[C@@H](OC(C)=O)[C@@]14O[C@@]3(C)COC(=O)c1cccnc1[C@@H](C)[C@H](C)C(=O)O[C@@H]([C@H](O)[C@@H]2OC(C)=O)[C@]4(C)O | inactive |
| CC(C)c1ccc2c(c1)C(=O)CC1[C@@](C)(C(=O)O)CCC[C@]21C (stereo not given in full) | inactive |

Prompt line: Identify the reported Potency for the following entry. CC(C)C(CO)Nc1nc(Nc2cc(N)cc(Cl)c2)c2ncn(C(C)C)c2n1 (stereo not given)
Response line: 22.4 µM (active)

Prompt line: Answer with reported Potency of COC1=CC(=O)CC(C)C12Oc1cc(OC)cc(O)c1C2=O (stereo not given)
Response line: inactive

Prompt line: For the molecule CC(=O)c1c(O)cc(O[C@@H]2O[C@H](CO)[C@@H](O)[C@H](O)[C@H]2O)cc1O , give its measured Potency value.
Response line: inactive

Prompt line: Read the entry COc1cc2c(cc1OC)-c1[nH]nc(Nc3cccc(F)c3)c1C2 and write its reported Potency.
Response line: 2.24 µM (active)

Prompt line: # return recorded Potency for entry COc1ccc([C@@]2(O)c3c(ccc4c3OC(C)(CCC=C(C)C)C=C4)NC(=O)[C@@H]2OC)cc1 (stereo not given in full)
Response line: inactive

Prompt line: Identify the reported Potency for the following entry. CC(C)CC1NC(=O)C2CC3(O)c4ccccc4NC3N2C1=O (stereo not given)
Response line: inactive
